Provenance of the data: the supplement of paper PMC11208160

experiment: recombinant barcode read abundance after kanamycin selection (control-corrected) (log10(CPM+1)); higher = more efficient recombination; sequences stand for … in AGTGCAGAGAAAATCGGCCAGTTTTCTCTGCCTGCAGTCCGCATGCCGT…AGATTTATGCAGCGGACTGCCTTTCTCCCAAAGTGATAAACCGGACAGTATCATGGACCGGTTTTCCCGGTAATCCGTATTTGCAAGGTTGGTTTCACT; site = the 11-nt target;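 further: IS621 recombinase and bridge RNA in Escherichia coli cells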
Label y when recombinant barcode read abundance (log10) >= 0.2; otherwise n.

Prompt line: Is recombinant barcode read abundance (log10) at least 0.2? Consider TTGATGACTTGGGTTCTAACCTGTTGCCT (site TTGTAGACTAG)
Response line: n

Prompt line: Also CACTCACCTTGGGTTCTAACCTGTTGCGG (site CACTCACCTCC) , if possible.
Response line: y

Prompt line: Also CGGCTTCCTTGGGTTCTAACCTGTTGCTT (site CGGCCTACTAA) , if possible.
Response line: y

Prompt line: Also ACATTTCCTTGGGTTCTAACCTGTTGCCT (site AGATTTCCTAG) , if possible.
Response line: n

Prompt line: Also GAGAGTACTTGGGTTCTAACCTGTTGCAT (site GAGCGTACTAT) , if possible.
Response line: n

Prompt line: Also GTCGGAACTTGGGTTCTAACCTGTTGCCT (site GTCGGAACTAG) , if possible.
Response line: y

Prompt line: Also AAGGGCGCTTGGGTTCTAACCTGTTGCCT (site AAGGACGCTAG) , if possible.
Response line: y

Prompt line: Also TACAATTCTTGGGTTCTAACCTGTTGCAT (site GGGCTCCCTCG) , if possible.
Response line: n
